- Target entity: Integrin alpha-4/beta-1 (Homo sapiens, UniProt P05556+P13612)
- Sequence (P05556 whole entry): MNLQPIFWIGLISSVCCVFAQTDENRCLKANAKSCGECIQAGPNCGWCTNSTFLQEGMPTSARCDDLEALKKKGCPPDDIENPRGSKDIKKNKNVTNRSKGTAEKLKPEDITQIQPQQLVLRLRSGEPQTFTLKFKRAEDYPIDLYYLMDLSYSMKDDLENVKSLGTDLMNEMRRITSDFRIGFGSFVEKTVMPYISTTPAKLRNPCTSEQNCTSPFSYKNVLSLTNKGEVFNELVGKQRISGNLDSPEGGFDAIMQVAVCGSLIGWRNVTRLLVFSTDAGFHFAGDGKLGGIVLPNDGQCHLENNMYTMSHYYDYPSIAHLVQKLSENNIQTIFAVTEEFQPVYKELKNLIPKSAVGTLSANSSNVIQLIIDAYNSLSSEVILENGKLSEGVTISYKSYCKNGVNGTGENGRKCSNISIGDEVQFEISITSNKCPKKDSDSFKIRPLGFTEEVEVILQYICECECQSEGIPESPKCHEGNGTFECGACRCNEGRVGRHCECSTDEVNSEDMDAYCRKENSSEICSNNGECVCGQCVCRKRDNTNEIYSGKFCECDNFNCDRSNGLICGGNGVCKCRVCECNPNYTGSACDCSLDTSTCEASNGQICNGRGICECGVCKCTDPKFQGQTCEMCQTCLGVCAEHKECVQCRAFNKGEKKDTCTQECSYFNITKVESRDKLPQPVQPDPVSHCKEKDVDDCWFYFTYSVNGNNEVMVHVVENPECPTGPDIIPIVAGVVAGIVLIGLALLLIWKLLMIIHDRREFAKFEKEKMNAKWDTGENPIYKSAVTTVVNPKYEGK
- Sequence (P13612 whole entry): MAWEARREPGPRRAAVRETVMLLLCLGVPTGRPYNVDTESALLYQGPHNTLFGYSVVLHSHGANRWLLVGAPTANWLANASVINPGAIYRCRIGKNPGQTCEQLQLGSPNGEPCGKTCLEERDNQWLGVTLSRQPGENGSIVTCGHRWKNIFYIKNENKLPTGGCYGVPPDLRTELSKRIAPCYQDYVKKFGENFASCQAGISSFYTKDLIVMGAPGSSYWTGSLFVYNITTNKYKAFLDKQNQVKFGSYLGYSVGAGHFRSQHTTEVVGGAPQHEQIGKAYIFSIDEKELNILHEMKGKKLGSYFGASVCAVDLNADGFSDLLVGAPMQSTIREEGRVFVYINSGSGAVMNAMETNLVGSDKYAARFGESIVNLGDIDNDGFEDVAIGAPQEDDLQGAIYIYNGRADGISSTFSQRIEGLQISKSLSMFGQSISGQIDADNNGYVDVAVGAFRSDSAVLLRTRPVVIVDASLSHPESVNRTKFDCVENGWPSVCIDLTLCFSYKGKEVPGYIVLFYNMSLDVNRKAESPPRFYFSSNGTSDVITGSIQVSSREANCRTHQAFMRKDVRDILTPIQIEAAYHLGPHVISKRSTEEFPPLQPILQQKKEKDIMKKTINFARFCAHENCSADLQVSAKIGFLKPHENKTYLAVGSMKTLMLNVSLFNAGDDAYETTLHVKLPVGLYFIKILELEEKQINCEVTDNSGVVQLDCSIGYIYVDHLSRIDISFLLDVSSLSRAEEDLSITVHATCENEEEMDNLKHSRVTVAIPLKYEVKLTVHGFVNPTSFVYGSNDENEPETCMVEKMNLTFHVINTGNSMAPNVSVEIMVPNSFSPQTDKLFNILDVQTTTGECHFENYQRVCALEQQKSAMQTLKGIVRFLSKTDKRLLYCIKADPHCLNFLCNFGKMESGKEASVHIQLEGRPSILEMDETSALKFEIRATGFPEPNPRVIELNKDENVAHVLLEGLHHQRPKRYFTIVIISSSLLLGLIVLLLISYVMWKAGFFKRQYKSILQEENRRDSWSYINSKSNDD
- Assay protocol: Inhibition of Very late antigen 4 (VLA-4) of Ramos cell adhesion to vascular cell adhesion molecule 1 (VCAM-1)
- Assay type: cell-based
pIC50: −log10 of the molar value.
Metric: pIC50

a. CS(=O)(=O)CCCCC1(C(=O)N[C@@H](Cc2ccc(NC(=O)c3c(Cl)cccc3Cl)cc2)C(=O)O)CCC1
b. CS(=O)(=O)CCCC1(C(=O)N[C@@H](Cc2ccc(NC(=O)c3c(Cl)cccc3Cl)cc2)C(=O)O)CCCC1
q: Between the two listed entries a and b , which has its pIC50 at the higher number? // respond with label for picked entry
a: a
